// provenance: ChEMBL document CHEMBL1150066

# method: Cytotoxicity against human NSCLC-N6 cells after 72 hrs by MTT assay
# Type: functional, cell-based
# settings: NSCLC-N6, 72 h
# maps each entry to its IC50

- molecule: "COc1ccc(O)c(O)c1C/C=C(\\C)CC/C=C(\\C)CC/C=C(\\C)CCC=C(C)C"
  IC50: "> 5 µg/mL"
- molecule: "COc1ccc(OC(C)=O)c(C/C=C(\\C)CC/C=C(\\C)CC/C=C(\\C)CCC=C(C)C)c1OC"
  IC50: "5.8 µg/mL"
- molecule: "CC(=O)Oc1ccc(O)c(O)c1C/C=C(\\C)CC/C=C(\\C)CC/C=C(\\C)CCC=C(C)C [TETRAPRENYLPHENOLSUILLIN]"
  IC50: "1 µg/mL"
- molecule: "COc1ccc(OC)c(OC)c1C/C=C(\\C)CC/C=C(\\C)CC/C=C(\\C)CCC=C(C)C"
  IC50: "> 10 µg/mL"
- molecule: "CC(=O)Oc1ccc2c(c1OC(C)=O)C=CC(C)(CC/C=C(\\C)CC/C=C(\\C)CCC=C(C)C)O2 (stereo not drawn)"
  IC50: "0.7 µg/mL"
- molecule: "CC(=O)Oc1ccc2c(c1OC(C)=O)CCC(C)(CCCC(C)CCCC(C)CCCC(C)C)O2 (stereo not drawn)"
  IC50: "0.9 µg/mL"
- molecule: "CC(=O)Oc1ccc(OC(C)=O)c(OC(C)=O)c1CCC(C)CCCC(C)CCCC(C)CCCC(C)C (stereo not drawn)"
  IC50: "9 µg/mL"
- molecule: "COc1c(O)cc(O)cc1C/C=C(\\C)CC/C=C(\\C)CC/C=C(\\C)CCC=C(C)C"
  IC50: "2.2 µg/mL"
- molecule: "CC(=O)Oc1ccc(O)c(O)c1CCC(C)CCCC(C)CCCC(C)CCCC(C)C (stereo not drawn)"
  IC50: "4.5 µg/mL"
- molecule: "CC(=O)Oc1ccc(OC(C)=O)c(OC(C)=O)c1C/C=C(\\C)CC/C=C(\\C)CC/C=C(\\C)CCC=C(C)C"
  IC50: "1.9 µg/mL"
- molecule: "CC(=O)Oc1c(O)ccc(O)c1C/C=C(\\C)CC/C=C(\\C)CC/C=C(\\C)CCC=C(C)C"
  IC50: "2.9 µg/mL"
- molecule: "CC(=O)Oc1cc(C/C=C(\\C)CC/C=C(\\C)CC/C=C(\\C)CCC=C(C)C)c(OC(C)=O)c(OC(C)=O)c1"
  IC50: "0.8 µg/mL"
- molecule: "CC(=O)Oc1c(O)cc(O)cc1C/C=C(\\C)CC/C=C(\\C)CC/C=C(\\C)CCC=C(C)C"
  IC50: "2.3 µg/mL"
